// reported pIC50 for each item listed
Biological target: human CCK-B/gastrin receptor (Homo sapiens, UniProt P32239)
Sequence (P32239 whole entry): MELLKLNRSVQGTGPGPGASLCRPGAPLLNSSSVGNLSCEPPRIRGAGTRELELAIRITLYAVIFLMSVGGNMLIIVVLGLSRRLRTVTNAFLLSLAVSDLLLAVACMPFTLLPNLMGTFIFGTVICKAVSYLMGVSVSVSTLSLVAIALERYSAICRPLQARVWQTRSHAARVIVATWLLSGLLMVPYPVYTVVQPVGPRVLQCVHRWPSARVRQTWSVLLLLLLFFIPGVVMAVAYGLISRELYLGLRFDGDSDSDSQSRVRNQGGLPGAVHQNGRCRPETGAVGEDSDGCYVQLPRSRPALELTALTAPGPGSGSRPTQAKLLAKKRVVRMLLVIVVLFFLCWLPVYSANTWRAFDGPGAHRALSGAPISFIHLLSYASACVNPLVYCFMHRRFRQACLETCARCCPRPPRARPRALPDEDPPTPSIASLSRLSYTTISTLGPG
Assay: Inhibition of binding against gastrin receptor (125I-gastrin, CHO cells)
Settings: [125I]gastrin 25 pM, CHO cells expressing human CCK-B/gastrin receptor, 37° C.
pIC50: −log10 of the molar value.
Attribute Measured: pIC50

1) Cc1cccc(N(C)C(=O)COc2ccccc2N(CC(=O)N(C)c2ccccc2)C(=O)CNC(=O)Nc2cccc(CC(=O)O)c2)c1
8.72
2) COc1cccc(N(C)C(=O)COc2ccccc2N(CC(=O)N(C)c2ccccc2)C(=O)CNC(=O)Nc2cccc(C(C)C(=O)O)c2)c1 (racemic)
9.00
3) COc1cccc(N(CC(=O)N(C)c2ccccc2)C(=O)CNC(=O)Nc2cccc(C(C)S(=O)(=O)O)c2)c1 (racemic) [Control compound A, reference compound]
8.19
4) COc1cccc(N(C)C(=O)COc2ccccc2N(CC(=O)N(C)c2ccccc2)C(=O)CNC(=O)Nc2cccc(CC(=O)O)c2)c1
9.06
5) Cc1cc(C)cc(N(C)C(=O)COc2ccccc2N(CC(=O)N(C)c2ccccc2)C(=O)CNC(=O)Nc2cccc(C(C)C(=O)O)c2)c1 (racemic)
9.30
6) Cc1ccccc1N(C)C(=O)COc1cccc(N(CC(=O)N(C)c2ccccc2)C(=O)CNC(=O)Nc2cccc(C(C)C(=O)O)c2)c1 (racemic)
8.80

----------
Target: human CCK-A receptor (Homo sapiens, UniProt P32238)
Sequence (P32238 whole entry): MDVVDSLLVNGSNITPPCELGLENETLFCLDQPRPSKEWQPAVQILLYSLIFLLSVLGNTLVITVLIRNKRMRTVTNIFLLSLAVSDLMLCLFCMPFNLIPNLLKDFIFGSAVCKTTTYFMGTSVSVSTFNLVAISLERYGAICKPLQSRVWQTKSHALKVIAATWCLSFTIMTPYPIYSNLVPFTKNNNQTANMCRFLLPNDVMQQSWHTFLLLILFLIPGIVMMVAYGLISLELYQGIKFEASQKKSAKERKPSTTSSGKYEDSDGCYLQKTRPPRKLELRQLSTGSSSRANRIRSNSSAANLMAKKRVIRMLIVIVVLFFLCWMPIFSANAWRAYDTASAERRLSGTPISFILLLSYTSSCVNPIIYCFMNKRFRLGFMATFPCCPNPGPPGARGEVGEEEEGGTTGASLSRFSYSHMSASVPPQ
// reported IC50 for each item listed
Attribute Measured: IC50 (nM)

1. COc1cccc(N(CC(=O)N(C)c2ccccc2)C(=O)CNC(=O)Nc2cccc(C(C)S(=O)(=O)O)c2)c1 (racemic) [Control compound A, reference compound]
1480
2. COc1cccc(N(C)C(=O)COc2ccccc2N(CC(=O)N(C)c2ccccc2)C(=O)CNC(=O)Nc2cccc(CC(=O)O)c2)c1 [Example 87]
3180
